- Target entity: benzodiazepine receptor
- Test summary: Benzodiazepine Receptor Binding Assay
- Measurement conditions: read-out: BZP-receptor Binding IC50; [3H]-diazepam 1.5 nM; rat brain crude synaptosome membrane; 0° C., 20 min
pIC50: −log10 of the molar value.
We begin with a simple list: items and their reported pIC50.
Parameter measured: pIC50

Cc1cccc(-c2nccc3[nH]c(=O)c(-c4nc(C)no4)cc23)c1 [Example 183] ... 8.81
O=c1[nH]c2ccnc(-c3cccc(Cl)c3)c2cc1-c1nc(C2CC2)no1 [Example 240] ... 8.60
O=c1[nH]c2ccnc(C3CC3)c2cc1-c1nc(C2CC2)no1 [Example 234] ... 9.08
CCCc1noc(-c2cc3c(-c4ccccc4F)nccc3[nH]c2=O)n1 [Example 217] ... 8.87
CCCc1nc(-c2cc3c(-c4ccc(F)cc4)nccc3[nH]c2=O)no1 [Example 40] ... 8.13
CCc1noc(-c2cc3c(-c4ccco4)nccc3[nH]c2=O)n1 [Example 211] ... 9.09
Cc1nc(-c2cc3c(-c4cccc(F)c4)nccc3[nH]c2=O)no1 [Example 5] ... 8.79
Cc1nc(-c2cc3c(-c4ccccc4)nccc3[nH]c2=O)no1 [Example 4] ... 8.78
Cc1nc(-c2cc3c(CC(C)C)nccc3[nH]c2=O)no1 [Example 3] ... 8.45

---

We begin with a simple list: items and their reported TBPS binding Variation Rate.
- Test system: GABAA receptor complex (TBPS binding)
- Test summary: TBPS Binding Assay
- Design: species or system Wistar rats
- Measurement conditions: [35S]TBPS 0.4 nM, GABA 1 μM, rat cerebral cortex membrane, +% inverse agonistic, 0% antagonistic
Parameter measured: TBPS binding Variation Rate (%)

CC(C)c1noc(-c2cc3c(C4CC4)nccc3[nH]c2=O)n1 ... -12
CCc1nc(-c2cc3c(-c4ccco4)nccc3[nH]c2=O)no1 ... 33
Cc1nc(-c2cc3c(-c4ccccc4C)nccc3[nH]c2=O)no1 ... 22
CCc1nc(-c2cc3c(CC(C)C)nccc3[nH]c2=O)no1 ... -13
O=c1[nH]c2ccnc(-c3cccc(Cl)c3)c2cc1-c1nc(C2CC2)no1 ... -13

---

- Target entity: benzodiazepine receptor
- Test summary: Benzodiazepine Receptor Binding Assay
- Measurement conditions: read-out: BZP-receptor Binding IC50; [3H]-diazepam 1.5 nM; rat brain crude synaptosome membrane; 0° C., 20 min
We begin with a simple list: items and their reported IC50.
Parameter measured: IC50 (nM)

CC(C)c1nc(-c2cc3c(C4CC4)nccc3[nH]c2=O)no1 ... 2.62
CC(C)c1nccc2[nH]c(=O)c(-c3nc(C4CC4)no3)cc12 ... 1.58
CCCc1noc(-c2cc3c(-c4ccccc4)nccc3[nH]c2=O)n1 ... 1.17
COc1cccc(-c2nccc3[nH]c(=O)c(-c4nc(C)no4)cc23)c1 ... 1.55
COc1ccc(-c2nccc3[nH]c(=O)c(-c4nc(C)no4)cc23)cc1 ... 6.42
CCc1nc(-c2cc3cnccc3[nH]c2=O)no1 ... 7.89
CCCc1noc(-c2cc3c(-c4ccsc4)nccc3[nH]c2=O)n1 ... 1.49
O=c1[nH]c2ccnc(-c3ccsc3)c2cc1-c1noc(C2CC2)n1 ... 1.12
CCc1noc(-c2cc3c(-c4cccc(C)c4)nccc3[nH]c2=O)n1 ... 1.16
CCCc1nc(-c2cc3c(-c4ccco4)nccc3[nH]c2=O)no1 ... 1.75
O=c1[nH]c2ccnc(-c3ccc(Cl)cc3)c2cc1-c1nc(C2CC2)no1 ... 6.08
O=c1[nH]c2ccnc(-c3ccco3)c2cc1-c1nc(C2CC2)no1 ... 0.81
Cc1cccc(-c2nccc3[nH]c(=O)c(-c4noc(C)n4)cc23)c1 ... 1.62
CC(C)c1nc(-c2cc3c(-c4cccs4)nccc3[nH]c2=O)no1 ... 1.08
CC(C)c1nc(-c2cc3c(-c4cccc(F)c4)nccc3[nH]c2=O)no1 ... 2.15
CC(C)c1noc(-c2cc3c(-c4cccs4)nccc3[nH]c2=O)n1 ... 0.9
CCCc1nc(-c2cc3c(-c4ccccc4F)nccc3[nH]c2=O)no1 ... 2.14
CC(C)c1noc(-c2cc3c(C4CC4)nccc3[nH]c2=O)n1 ... 3.57
CCc1noc(-c2cc3c(C4CC4)nccc3[nH]c2=O)n1 ... 1.06
